Data provenance: the supplement of paper PMC4237247

System: HeLa
assay-procedure: percent cells in G1/S phase; higher = more G1/S content
settings: 10 µM; 20 h; hit class: G2/M-phase inhibitor
measurement-name: percent cells in G1/S phase
The number alone won't do; follow it with the unit.

Use the examples below as a reference point.
O=C(CSc1nc2ccc([N+](=O)[O-])cc2s1)c1ccc(Cl)cc1 ... 22.6%
O=C(O)c1ccccc1SC1CC(=O)N(c2ccc(Br)cc2)C1=O (stereo not given) ... 17.9%
COc1cc(NS(=O)(=O)c2ccc(NC(C)=O)cc2)c(OC)cc1Cl ... 23.2%
COC(=O)Nc1nc2cc(Sc3ccccc3)ccc2[nH]1 ... 26.3%

Now for the compound whose percent cells in G1/S phase we want.
Req: Quick one: percent cells in G1/S phase of CCN(CC)CCN1C(=O)C(=O)C(=C(O)c2ccccc2)C1c1ccccc1F (stereo not given) ?
Resp: 20.9%
